target: T1, recombinant human Tau monomer, 2N4R isoform (amino acids 2-441) (human, UniProt P10636-8 2-441); assay: SPR; Normalized Rmax post-stress (2 weeks 40 C) / pre-stress
T1 construct: range 2-441; N-terminal His-tag removed with TEV protease; also called monomeric Tau
T1 sequence (P10636 other isoform, or with tags, fused parts or gaps limits assumed): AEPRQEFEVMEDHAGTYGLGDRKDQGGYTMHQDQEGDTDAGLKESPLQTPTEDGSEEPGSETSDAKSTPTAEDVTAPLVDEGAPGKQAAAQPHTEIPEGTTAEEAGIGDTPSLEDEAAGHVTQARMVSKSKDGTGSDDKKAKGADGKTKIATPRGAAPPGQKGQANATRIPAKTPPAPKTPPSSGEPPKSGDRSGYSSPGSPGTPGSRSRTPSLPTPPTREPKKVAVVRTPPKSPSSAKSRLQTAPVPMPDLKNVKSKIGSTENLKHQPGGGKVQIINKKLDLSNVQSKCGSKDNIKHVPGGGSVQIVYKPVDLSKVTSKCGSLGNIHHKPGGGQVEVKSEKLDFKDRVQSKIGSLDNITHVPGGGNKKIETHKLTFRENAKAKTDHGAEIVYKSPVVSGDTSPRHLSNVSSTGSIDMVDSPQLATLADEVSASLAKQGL
MEASUREMENT_KIND: Stability Index (%)
One number for each entry, in %.

Task: Entry hu37D3.v29.6 (antibody, V domains shown) VH: EVQLVESGGGLVQPGGSLRLSCAASGLIFRSYGMSWVRQAPGKGLEWVATINSGGTYTYYPDSVKGRFTISRDNSKNTLYLQMNSLRAEDTAVYYCANSYSGAMDYWGQGTLVTVSS VL: EDVLTQTPLSLPVTPGQPASISCRSSQSIVHSNGKTYFEWYLQKPGQSPQLLIYKVSNRFSGVPDRFSGSGSGTDFTLKISRVEAEDVGVYYCFQGSLVPWTFGQGTKVEIK has what Stability Index?
Output: 62

Task: Follow-up entry: hu37D3-H9.v5.1 (antibody, V domains shown) VH: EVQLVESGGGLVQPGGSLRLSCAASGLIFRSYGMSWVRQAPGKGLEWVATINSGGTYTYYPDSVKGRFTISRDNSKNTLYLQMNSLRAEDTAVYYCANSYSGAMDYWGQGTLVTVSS VL: EDVLTQTPLSLPVTPGQPASISCRSSQSIVHSNANTYFEWYLQKPGQSPQLLIYKVSNRFSGVPDRFSGSGSGTDFTLKISRVEAEDVGVYYCFQGSLVPWTFGQGTKVEIK
Output: 72

Task: Follow-up entry: hu37D3.v28.A2 (antibody, V domains shown) VH: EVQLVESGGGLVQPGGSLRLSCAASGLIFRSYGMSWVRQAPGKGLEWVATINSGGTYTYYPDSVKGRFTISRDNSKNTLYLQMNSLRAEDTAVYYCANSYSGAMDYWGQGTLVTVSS VL: DDVLTQTPLSLPVTPGQPASISCRSSQSIVHSNGNTYFEWYLQKPGQSPQLLIYKVSNRFSGVPDRFSGSGSGTDFTLKISRVEAEDVGVYYCFQGSHVPWTFGQGTKVEIK
Output: 72

Task: Same question, hu37D3.v28.A24 (antibody, V domains shown) VH: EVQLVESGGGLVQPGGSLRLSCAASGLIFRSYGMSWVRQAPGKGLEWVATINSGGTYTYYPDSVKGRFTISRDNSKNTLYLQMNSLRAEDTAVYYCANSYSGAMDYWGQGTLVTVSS VL: DVVMTQTPLSLPVTPGQPASISCRSSQSIVHSNGNTYFEWYLQKPGQSPQLLIYKVSNRFSGVPDRFSGSGSGTDFTLKISRVEAEDVGVYYCFQGSLVPWTFGQGTKVEIK this time
Output: 95

Consider the additional binder presented here.
Task: Would you kindly share the measured Stability Index for hu37D3-H9.v30.10 (antibody, V domains shown) VH: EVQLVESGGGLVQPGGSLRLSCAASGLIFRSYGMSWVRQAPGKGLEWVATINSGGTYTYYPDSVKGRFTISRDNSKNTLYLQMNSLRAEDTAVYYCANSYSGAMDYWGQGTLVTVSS VL: DDVLTQTPLSLPVTPGQPASISCRSSQSIVHSKGNTYFEWYLQKPGQSPQLLIYKVSNRFSGVPDRFSGSGSGTDFTLKISRVEAEDVGVYYCFQGSLVPWTFGQGTKVEIK ?
Output: 84
